Quick reference: IC50 of the listed items.
# testSystem: nicotinic acetylcholine receptor (nAChR)
# experimentalProtocol: [3H]imidacloprid displacement, honeybee head membrane preparations
# Format: binding, A. mellifera
# conditionLabel: honeybee head membranes; 95% CI given in text
The reply should contain only the number, in nM.

smilesrepresentation=O=[N+]([O-])NC1=NCCN1Cc1ccc(Cl)nc1 testsystem="nicotinic acetylcholine receptor (nAChR)" valuekind=IC50 unitabbreviation=nM readoutvalue=1.2

Input: Request the reported IC50 associated with N#C/N=C1\SCCN1Cc1ccc(Cl)nc1
Output: 1.1

----------
# Tested on: CYP9Q5
# experimentalProtocol: Metabolism by recombinant CYP9Q5/CPR microsomes, LC-MS/MS
# conditionLabel: Bombus terrestris
valueKind: Km at 45 min (µM)
Write the number in µM without appending the unit.

Input: I'd like to know its Km at 45 min. The compound in question is N#C/N=C1\SCCN1Cc1ccc(Cl)nc1 [thiacloprid]
Output: 30

----------
# testSystem: CYP9Q2 (Apis mellifera)
# Sequence (A0A7M7R6F2 1-532): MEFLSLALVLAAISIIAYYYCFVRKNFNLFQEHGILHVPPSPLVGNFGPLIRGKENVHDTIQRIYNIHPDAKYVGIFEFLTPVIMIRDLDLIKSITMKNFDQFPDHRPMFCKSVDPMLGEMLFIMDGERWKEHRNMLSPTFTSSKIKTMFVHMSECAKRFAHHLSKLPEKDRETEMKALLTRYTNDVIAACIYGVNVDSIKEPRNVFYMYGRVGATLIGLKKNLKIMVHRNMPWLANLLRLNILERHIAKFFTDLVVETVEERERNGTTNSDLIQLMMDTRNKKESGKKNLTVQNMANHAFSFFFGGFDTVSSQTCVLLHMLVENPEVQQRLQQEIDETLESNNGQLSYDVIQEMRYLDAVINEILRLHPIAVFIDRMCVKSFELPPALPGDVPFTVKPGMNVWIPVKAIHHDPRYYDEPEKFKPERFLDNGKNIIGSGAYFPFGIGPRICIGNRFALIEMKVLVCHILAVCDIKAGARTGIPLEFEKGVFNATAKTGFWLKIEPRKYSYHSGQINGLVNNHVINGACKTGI
# Sequence (Q07994 1-671 partner): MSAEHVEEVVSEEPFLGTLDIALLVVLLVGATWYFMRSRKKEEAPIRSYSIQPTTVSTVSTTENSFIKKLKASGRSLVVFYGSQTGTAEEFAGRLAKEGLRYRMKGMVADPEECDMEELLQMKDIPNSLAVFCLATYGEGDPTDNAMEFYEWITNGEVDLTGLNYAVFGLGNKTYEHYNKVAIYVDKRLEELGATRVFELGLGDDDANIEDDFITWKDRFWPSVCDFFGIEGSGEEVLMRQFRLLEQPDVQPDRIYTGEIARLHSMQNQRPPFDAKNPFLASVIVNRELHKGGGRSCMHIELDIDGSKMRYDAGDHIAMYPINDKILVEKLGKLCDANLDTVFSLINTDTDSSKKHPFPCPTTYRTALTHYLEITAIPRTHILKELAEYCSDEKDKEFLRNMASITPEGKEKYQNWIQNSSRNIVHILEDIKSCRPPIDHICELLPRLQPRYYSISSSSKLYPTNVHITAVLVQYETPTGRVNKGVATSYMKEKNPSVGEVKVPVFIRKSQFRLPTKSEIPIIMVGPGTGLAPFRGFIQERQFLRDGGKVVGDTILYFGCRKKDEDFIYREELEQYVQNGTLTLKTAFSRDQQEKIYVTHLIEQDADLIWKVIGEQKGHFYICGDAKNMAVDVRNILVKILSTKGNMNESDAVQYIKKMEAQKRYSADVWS
# experimentalProtocol: in vitro
# conditionLabel: Apis mellifera
valueKind: Km at 2 h (µM)
The response must be a number in µM with no trailing unit.

Input: Param item = N#C/N=C1\SCCN1Cc1ccc(Cl)nc1 ; retrieve measured Km at 2 h.
Output: 5.65
